Field: viability, T/C. Provide a value for each of the molecules that follow.
- Test system: 997726-040-R-J2-PDC tumor spheroids, viability
- test: Anticancer human tumor 997726-040-R-J2-PDC patient-derived squamous cell lung carcinoma cell line growth inhibition [PI3K]
- measurement.conditions: compound 0.1 µM; stronger effect = lower value; spheroids with HUVEC and MSC
- From the text: Combinatorial screen of targeted agents with the PI3K inhibitors inavolisib, alpelisib, duvelisib, and copanlisib in multi-cell type tumor spheroids A high-throughput screen of multi-cell type tumor spheroids was designed to identify active combinations of targeted small molecules and PI3K pathway inhibitors. […] Compounds. […] If the clinical Cmax for an agent had not been determined, the highest concentration tested was 10 microM. […]

// query viability, T/C value for entry COc1c(OCCCN2CCOCC2)ccc2c3n(c(=NC(=O)c4cnc(N)nc4)nc12)CCN3
22.1% [middle of 8 runs]

// query viability, T/C value for entry CC1(C)CCC(Nc2ncc(C(F)(F)F)c(-c3c[nH]c4c(P(C)(C)=O)c(C#N)ccc34)n2)CN1 (centres undefined)
42.6% [middle of 4 runs]

// query viability, T/C value for entry CCCS(=O)(=O)Nc1ccc(F)c(C(=O)c2c[nH]c3ncc(-c4ccc(Cl)cc4)cc23)c1F
106% [middle of 4 runs]

// query viability, T/C value for entry CNC(=O)c1ccc(N2C(=S)N(c3ccc(C#N)c(C(F)(F)F)c3)C(=O)C2(C)C)cc1F
95.3% [middle of 4 runs]

// query viability, T/C value for entry Cn1ncc(Cl)c1-c1cc(C(=O)NC(CN)Cc2cccc(F)c2)sc1Cl (centres undefined)
46.1% [middle of 4 runs]

// query viability, T/C value for entry CC(Nc1ncnc2nc[nH]c12)c1cc2cccc(Cl)c2c(=O)n1-c1ccccc1 (centres undefined)
99.4% [middle of 8 runs]

// query viability, T/C value for entry Cc1nc(NC(=O)N2CCCC2C(N)=O)sc1-c1ccnc(C(C)(C)C(F)(F)F)c1 (centres undefined)
77% [middle of 8 runs]

// query viability, T/C value for entry C#Cc1c(F)ccc2cc(O)cc(-c3ncc4c(N5CC6CCC(C5)N6)nc(OCC56CCCN5CC(F)C6)nc4c3F)c12 (centres undefined)
96% [middle of 4 runs]

// query viability, T/C value for entry Cn1ncnc1[C@H]1c2n[nH]c(=O)c3cc(F)cc(c23)N[C@@H]1c1ccc(F)cc1
102% [middle of 4 runs]

* * *

- Tested on: 997726-040-R-J2-PDC tumor spheroids, viability
- test: Anticancer human tumor 997726-040-R-J2-PDC cell line growth inhibition [PI3K];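 also: spheroids exposed to compounds for seven days before readout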
- measurement.conditions: second compound 1 µM; first compound 0.1 µM; stronger effect = lower value; spheroids with HUVEC and MSC
- Description: Combinatorial screen of targeted agents with the PI3K inhibitors inavolisib, alpelisib, duvelisib, and copanlisib in multi-cell type tumor spheroids A high-throughput screen of multi-cell type tumor spheroids was designed to identify active combinations of targeted small molecules and PI3K pathway inhibitors. […] Compounds. […] If the clinical Cmax for an agent had not been determined, the highest concentration tested was 10 microM. […]
Hi! Could you tag entries with viability, T/C below 20% as YES, and those at or above as NO? Much appreciated.

Check if viability, T/C falls below 20% for CC1(C)CCC(CN2CCN(c3ccc(C(=O)NS(=O)(=O)c4ccc(NCC5CCOCC5)c([N+](=O)[O-])c4)c(Oc4cnc5[nH]ccc5c4)c3)CC2)=C(c2ccc(Cl)cc2)C1 + CC(Nc1ccc2c(c1)OCCn1cc(N3C(=O)OCC3C(F)F)nc1-2)C(N)=O .
NO

Check if viability, T/C falls below 20% for CC1(C)CCC(CN2CCN(c3ccc(C(=O)NS(=O)(=O)c4ccc(NCC5CCOCC5)c([N+](=O)[O-])c4)c(Oc4cnc5[nH]ccc5c4)c3)CC2)=C(c2ccc(Cl)cc2)C1 + CC(Nc1ncnc2nc[nH]c12)c1cc2cccc(Cl)c2c(=O)n1-c1ccccc1 .
NO

Check if viability, T/C falls below 20% for C#Cc1c(F)ccc2cc(O)cc(-c3ncc4c(N5CC6CCC(C5)N6)nc(OCC56CCCN5CC(F)C6)nc4c3F)c12 (stereo not given) + COc1c(OCCCN2CCOCC2)ccc2c3n(c(=NC(=O)c4cnc(N)nc4)nc12)CCN3 .
YES

Check if viability, T/C falls below 20% for CC(C)NCC(C(=O)N1CCN(c2ncnc3c2C(C)CC3O)CC1)c1ccc(Cl)cc1 (stereo not given) + CC(Nc1ccc2c(c1)OCCn1cc(N3C(=O)OCC3C(F)F)nc1-2)C(N)=O .
NO

Check if viability, T/C falls below 20% for Cn1ncc(Cl)c1-c1cc(C(=O)NC(CN)Cc2cccc(F)c2)sc1Cl (stereo not given) + CC(Nc1ncnc2nc[nH]c12)c1cc2cccc(Cl)c2c(=O)n1-c1ccccc1 .
NO

* * *

- System: 997726-040-R-J2-PDC tumor spheroids, viability
- test: Anticancer human tumor 997726-040-R-J2-PDC cell line growth inhibition [PI3K];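 also: spheroids exposed to compounds for seven days before readout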
- measurement.conditions: second compound 1 µM; first compound 0.1 µM; stronger effect = lower value; spheroids with HUVEC and MSC
measured.attribute: viability, T/C (%)
Respond numerically; units are % and should not be typed.

// query viability, T/C value for entry CC1(C)CCC(Nc2ncc(C(F)(F)F)c(-c3c[nH]c4c(P(C)(C)=O)c(C#N)ccc34)n2)CN1 (configuration not stated) + COc1c(OCCCN2CCOCC2)ccc2c3n(c(=NC(=O)c4cnc(N)nc4)nc12)CCN3
0.74

// query viability, T/C value for entry CC1(C)CCC(CN2CCN(c3ccc(C(=O)NS(=O)(=O)c4ccc(NCC5CCOCC5)c([N+](=O)[O-])c4)c(Oc4cnc5[nH]ccc5c4)c3)CC2)=C(c2ccc(Cl)cc2)C1 + Cc1nc(NC(=O)N2CCCC2C(N)=O)sc1-c1ccnc(C(C)(C)C(F)(F)F)c1
41

// query viability, T/C value for entry CC(C)n1nc(-c2ccc3oc(N)nc3c2)c2c(N)ncnc21 + Cc1nc(NC(=O)N2CCCC2C(N)=O)sc1-c1ccnc(C(C)(C)C(F)(F)F)c1
3.77

// query viability, T/C value for entry CCN1CCN(Cc2ccc(Nc3ncc(F)c(-c4cc(F)c5nc(C)n(C(C)C)c5c4)n3)nc2)CC1 + COc1c(OCCCN2CCOCC2)ccc2c3n(c(=NC(=O)c4cnc(N)nc4)nc12)CCN3
1.32

// query viability, T/C value for entry Cn1nccc1Nc1nccc(-c2ccn(C(CO)c3ccc(Cl)c(F)c3)c(=O)c2)n1 (configuration not stated) + CC(Nc1ncnc2nc[nH]c12)c1cc2cccc(Cl)c2c(=O)n1-c1ccccc1
77.6

// query viability, T/C value for entry Cn1ncc(Cl)c1-c1cc(C(=O)NC(CN)Cc2cccc(F)c2)sc1Cl (configuration not stated) + Cc1nc(NC(=O)N2CCCC2C(N)=O)sc1-c1ccnc(C(C)(C)C(F)(F)F)c1
35.2

// query viability, T/C value for entry CCCS(=O)(=O)Nc1ccc(F)c(C(=O)c2c[nH]c3ncc(-c4ccc(Cl)cc4)cc23)c1F + CC(Nc1ccc2c(c1)OCCn1cc(N3C(=O)OCC3C(F)F)nc1-2)C(N)=O
28.7

* * *

- Tested on: 997726-040-R-J2-PDC tumor spheroids, viability
- test: Anticancer human tumor 997726-040-R-J2-PDC cell line growth inhibition [PI3K];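 also: spheroids exposed to compounds for seven days before readout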
- measurement.conditions: compound 0.1 µM; stronger effect = lower value; spheroids with HUVEC and MSC
measured.attribute: viability, T/C

// query viability, T/C value for entry Cn1nccc1Nc1nccc(-c2ccn(C(CO)c3ccc(Cl)c(F)c3)c(=O)c2)n1 (centres undefined)
78.7% [middle of 4 runs]

// query viability, T/C value for entry C[C@@H](NC(=O)c1ncnc(N)c1Cl)c1ncc(C(=O)Nc2cc(C(F)(F)F)c(Cl)cn2)s1
125% [middle of 4 runs]

// query viability, T/C value for entry CC1(C)CCC(CN2CCN(c3ccc(C(=O)NS(=O)(=O)c4ccc(NCC5CCOCC5)c([N+](=O)[O-])c4)c(Oc4cnc5[nH]ccc5c4)c3)CC2)=C(c2ccc(Cl)cc2)C1
95.7% [middle of 4 runs]

// query viability, T/C value for entry CC(Cn1ccc(-c2ccc(C#N)c(Cl)c2)n1)NC(=O)c1cc(C(C)O)[nH]n1 (centres undefined)
103% [middle of 4 runs]

* * *

- Tested on: 997726-040-R-J2-PDC tumor spheroids, viability
- test: Anticancer human tumor 997726-040-R-J2-PDC cell line growth inhibition [PI3K]; active = viability on the fitted dose curve at most 10% of control; inactive = the rest;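 also: spheroids exposed to compounds for seven days before readout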
- measurement.conditions: second compound 1 µM; first compound 0.316 µM; spheroids with HUVEC and MSC
Respond with a class label; see active, inactive

Just curious, what result did C=CC(=O)N1CCN(c2nc(=O)n(-c3c(C)ccnc3C(C)C)c3nc(-c4c(O)cccc4F)c(F)cc23)C(C)C1 (stereo not given) + Cc1nc(NC(=O)N2CCCC2C(N)=O)sc1-c1ccnc(C(C)(C)C(F)(F)F)c1 get here?
inactive

Just curious, what result did CCCS(=O)(=O)Nc1ccc(F)c(C(=O)c2c[nH]c3ncc(-c4ccc(Cl)cc4)cc23)c1F + CC(Nc1ccc2c(c1)OCCn1cc(N3C(=O)OCC3C(F)F)nc1-2)C(N)=O get here?
inactive

Just curious, what result did C#Cc1c(F)ccc2cc(O)cc(-c3ncc4c(N5CC6CCC(C5)N6)nc(OCC56CCCN5CC(F)C6)nc4c3F)c12 (stereo not given) + CC(Nc1ncnc2nc[nH]c12)c1cc2cccc(Cl)c2c(=O)n1-c1ccccc1 get here?
inactive

Just curious, what result did CC1(C)CCC(Nc2ncc(C(F)(F)F)c(-c3c[nH]c4c(P(C)(C)=O)c(C#N)ccc34)n2)CN1 (stereo not given) + COc1c(OCCCN2CCOCC2)ccc2c3n(c(=NC(=O)c4cnc(N)nc4)nc12)CCN3 get here?
active

Just curious, what result did CCN1CCN(Cc2ccc(Nc3ncc(F)c(-c4cc(F)c5nc(C)n(C(C)C)c5c4)n3)nc2)CC1 + Cc1nc(NC(=O)N2CCCC2C(N)=O)sc1-c1ccnc(C(C)(C)C(F)(F)F)c1 get here?
inactive

The reported measurements were obtained from PubChem BioAssay AID1963964.
